Assay: in vitro
Conditions: PAMPA
Description: Effective permeability of compound by PAMPA assay
readoutLabel: Papp

Worked cases, answers included:
INSERT INTO results (compound, reported) VALUES
  ('O=C(c1cccc(C(F)(F)F)n1)N1CCCC(c2cc3ncccc3[nH]2)C1 (stereo not drawn)', '5.84 to 21.2 nm/s'),
  ('Cc1nc(C)c(C(=O)N2CCCC(c3cc4ncccc4[nH]3)C2)o1 (stereo not drawn)', '15.6 to 21.4 nm/s');

Lab note: next compound to report on.
// Papp value for "CCN(CCc1nc2ncccc2[nH]1)C(=O)c1ccccc1" : 33.5 to 34.4 nm/s
